The measured values listed here are drawn from patent US20130059874A1.

- assay.system: rhesus (Macacca Mulatta) H3 receptor (Macaca mulatta)
- Sequence (Q865E1 1-445): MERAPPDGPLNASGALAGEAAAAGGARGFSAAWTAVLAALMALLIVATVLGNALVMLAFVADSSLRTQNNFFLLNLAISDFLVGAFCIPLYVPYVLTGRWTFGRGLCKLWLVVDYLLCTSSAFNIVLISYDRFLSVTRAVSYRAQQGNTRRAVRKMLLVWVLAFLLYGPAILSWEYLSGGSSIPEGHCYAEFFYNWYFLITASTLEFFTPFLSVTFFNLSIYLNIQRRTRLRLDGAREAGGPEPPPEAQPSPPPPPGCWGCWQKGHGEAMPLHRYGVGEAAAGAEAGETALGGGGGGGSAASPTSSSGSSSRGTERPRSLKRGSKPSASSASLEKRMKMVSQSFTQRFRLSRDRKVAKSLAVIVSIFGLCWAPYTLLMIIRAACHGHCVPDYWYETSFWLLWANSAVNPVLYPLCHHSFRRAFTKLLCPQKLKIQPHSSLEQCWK
Counter-ions that a name gives are not always drawn.
Decision: Ki beneath 10 nM gives YES; Ki meeting or exceeding 10 nM gives NO.

Exercise: Please determine if Cc1cc(N2CCC(N3CCC[C@@H]3C)CC2)ccc1N1CCC2(CCC(O)CC2)C1=O (stereo partly drawn) is below 10 nM in terms of Ki.
Key: NO

Exercise: Please determine if `COc1cc(N2CC[C@H](N3CCC[C@@H]3C)C2)ccc1N1CCC2(CCCCC2)C1=O` is below 10 nM in terms of Ki.
Key: YES

Exercise: Please determine if Cc1cc(N2CCC(N3CCC[C@@H]3C)CC2)ccc1N1CCC2(CCC(C(=O)O)CC2)C1=O (stereo partly drawn) is below 10 nM in terms of Ki.
Key: NO

Exercise: Please determine if Cc1cc(N2CC[C@H](N3CCC[C@@H]3C)C2)ccc1N1CCC2(CCC(O)CC2)C1=O (single isomer, unassigned) is below 10 nM in terms of Ki.
Key: NO

Exercise: Please determine if `Cc1cc(N2CCC(N3CCC[C@@H]3C)CC2)ccc1N1CCCC2(CCCC2)C1=O` is below 10 nM in terms of Ki.
Key: NO

Exercise: Please determine if Cc1cc(N2CCC(N3CCC[C@@H]3C)CC2)ccc1N1CCC2(CCCCC2)C1=O [Example 1, trifluoroacetate] is below 10 nM in terms of Ki.
Key: YES
